# tested-target: JAK2 (Homo sapiens, UniProt O60674)
# Sequence (O60674 whole entry): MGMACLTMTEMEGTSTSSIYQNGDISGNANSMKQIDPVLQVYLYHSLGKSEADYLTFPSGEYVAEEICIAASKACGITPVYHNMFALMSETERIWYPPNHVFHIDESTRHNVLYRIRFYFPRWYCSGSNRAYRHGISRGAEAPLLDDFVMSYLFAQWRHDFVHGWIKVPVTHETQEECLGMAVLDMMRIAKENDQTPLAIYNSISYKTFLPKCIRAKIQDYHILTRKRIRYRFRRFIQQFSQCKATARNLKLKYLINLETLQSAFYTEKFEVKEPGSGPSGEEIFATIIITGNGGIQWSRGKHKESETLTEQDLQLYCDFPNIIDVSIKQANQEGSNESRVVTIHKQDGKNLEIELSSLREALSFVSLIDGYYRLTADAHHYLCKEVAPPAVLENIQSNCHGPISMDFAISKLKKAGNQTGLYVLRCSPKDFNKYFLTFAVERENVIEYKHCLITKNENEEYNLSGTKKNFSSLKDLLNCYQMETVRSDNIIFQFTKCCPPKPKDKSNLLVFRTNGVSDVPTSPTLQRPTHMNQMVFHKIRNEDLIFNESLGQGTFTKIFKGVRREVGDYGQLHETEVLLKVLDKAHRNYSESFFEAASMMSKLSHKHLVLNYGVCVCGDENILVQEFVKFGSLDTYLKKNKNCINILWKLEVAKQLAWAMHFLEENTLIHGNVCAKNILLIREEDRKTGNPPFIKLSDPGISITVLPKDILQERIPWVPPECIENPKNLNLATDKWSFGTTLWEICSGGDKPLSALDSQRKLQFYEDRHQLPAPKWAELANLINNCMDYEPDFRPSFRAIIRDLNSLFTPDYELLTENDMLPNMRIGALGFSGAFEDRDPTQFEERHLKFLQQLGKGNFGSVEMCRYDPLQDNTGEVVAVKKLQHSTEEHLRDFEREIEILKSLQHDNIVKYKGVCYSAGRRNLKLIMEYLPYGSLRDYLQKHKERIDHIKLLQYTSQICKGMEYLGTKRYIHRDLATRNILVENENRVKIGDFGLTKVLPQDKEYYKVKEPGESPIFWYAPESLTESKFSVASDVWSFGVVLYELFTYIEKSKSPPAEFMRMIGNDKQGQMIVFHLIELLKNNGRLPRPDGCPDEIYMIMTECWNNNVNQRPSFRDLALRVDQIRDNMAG
# assay-overview: JAK2 inhibition assay (as Example 3 with JAK-2 enzyme)
# Format: biochemical
# measurement-conditions: Table 6; enzyme inhibition data (Ki)
measurement-kind: Ki

Below are worked cases with known answers.
compound	tested-target	measurement-kind	recorded-measurement
CCN(Cc1ccccc1)C(=O)c1ccc(-c2ccnc3[nH]ccc23)s1	JAK2 (Homo sapiens, UniProt O60674)	Ki	< 0.5 µM
CC1CCC(C)N1C(=O)c1cc(-c2ccnc3[nH]ccc23)c[nH]1 (stereo not shown)	JAK2 (Homo sapiens, UniProt O60674)	Ki	< 0.5 µM
CC(C)CN(C)C(=O)c1cc(-c2c(Cl)cnc3[nH]ccc23)c[nH]1	JAK2 (Homo sapiens, UniProt O60674)	Ki	< 0.5 µM
CCCN(CCC#N)C(=O)c1cc(-c2c(Cl)cnc3[nH]ccc23)c[nH]1	JAK2 (Homo sapiens, UniProt O60674)	Ki	< 0.5 µM
O=C(Nc1ccccc1)c1cc(-c2ccnc3[nH]ccc23)c[nH]1	JAK2 (Homo sapiens, UniProt O60674)	Ki	< 0.5 µM
O=C(c1cc(-c2ccnc3[nH]ccc23)c[nH]1)N1CCC(CO)CC1	JAK2 (Homo sapiens, UniProt O60674)	Ki	< 0.5 µM

Request: Name the recorded Ki of the compound listed here: CCC1CCCCN1C(=O)c1csc(-c2ccnc3[nH]ccc23)n1 (stereo not shown)
Result: < 0.5 µM

Request: Name the recorded Ki of the compound listed here: C#CCN(C)C(=O)c1ccc(-c2ccnc3[nH]ccc23)s1
Result: < 0.5 µM

Request: Name the recorded Ki of the compound listed here: O=C(NCC(F)F)c1cc(-c2ccnc3[nH]ccc23)c[nH]1
Result: < 0.5 µM

Request: Name the recorded Ki of the compound listed here: O=C(CCNc1nc(-c2ccnc3[nH]ccc23)ncc1F)NCC(F)(F)F
Result: 0.5 to 5 µM

Request: Name the recorded Ki of the compound listed here: COc1cccc(Cl)c1-c1ccnc2[nH]ccc12
Result: > 5 µM

These data points were gathered from patent US8921376B2.
